Where do the numbers come from? From patent US20080200470A1.

Structures can show the parent of a compound that is named as a salt.
Consider the following compounds and their measured melting point readings.
value type: melting point

- CCOc1ccccc1OCCNCCCCN1C(=O)CSC1=O (as salt: salt): 70 to 74 °C
- O=C1C2CCCN2C(=O)N1CCCCNCc1ccc2ccccc2n1 (centres unmarked): 125 to 126 °C
- O=C1C2CCCCN2C(=O)N1CCCCCCNCc1ccc2ccccc2n1 (centres unmarked) (as salt: salt): 176 to 188 °C
- CCc1ccccc1OCCNCCCCN1C(=O)C2CCCN2C1=O (centres unmarked) (as salt: salt): 115 to 118 °C
- O=C1C2CCCN2C(=O)N1CCCCNCCOc1cccc(Br)c1 (centres unmarked) (as salt: salt): 140 to 143 °C
- O=C1C2CCCCN2C(=O)N1CCCCNCc1ccc2ccccc2n1 (centres unmarked) (as salt: salt): 206 to 208 °C
- O=C1C2CCCN2C(=O)N1CCCCNCCOc1ccccc1Br (centres unmarked) (as salt: salt): 98 to 99 °C
- CCOc1ccccc1OCCNCCCCCCCCN1C(=O)CSC1=O (as salt: salt): 105 to 108 °C
